biological target: µ-receptor (guinea pig ileum preparation) (guinea pig); assay: cell-based or functional assay
QUANTITY_KIND: GPI IC50 (nM)

Worked set:
Tyr-c[D-Cys-Gly-Phe-D-Cys]-NH2 (peptide): 0.78
Tyr-c[D-Cys-Gly-Phe-L-Cys]-NH2 (peptide): 1.51

(A) Tyr-c[D-Pen-Gly-Phe-D-Pen]-OH (peptide)
(B) Tyr-c[D-Cys-Gly-Phe-L-Cys]-OH (peptide)
Field: lower recorded GPI IC50 (choose A or B ) State the label of the item chosen. B
(B: 3.06 nM, A: 7300 nM)
